assay: inhibitors of CMV-promoter luciferase reporter, dose response, counter-screen for Pax8 inhibitor project, cell-based, HEK293, luminescence, dry powder (AID 743020);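 also: HEK293 cells stably expressing the CMV luciferase reporter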
stated-conditions: SteadyGlo luminescence, 24 h; series mostly up to 35 µM
Entries with a potency or affinity are not part of this list. Inconclusive results are not listed. Calls of active or inactive are those of the source.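 The calls were made as follows: active = signal-lowering compounds whose fitted half-maximal concentration is at or below twice the top tested dose in every run; inconclusive = runs disagree, flat 30 to 70% inhibition, or poor curve fit; inactive = the rest.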
reported-property: activity change, negative = inhibition

[[record]]
smiles_data = "C[C@@H]1CCCCO[C@H](CN(C)Cc2ccc(C(F)(F)F)cc2)[C@H](C)CN([C@@H](C)CO)C(=O)c2cc(NS(=O)(=O)c3ccc(F)cc3)ccc2O1"
reported_property = "activity change, negative = inhibition"
readout_value = "inactive"

[[record]]
smiles_data = "C[C@@H]1CN([C@H](C)CO)C(=O)c2cc(NC(=O)Nc3ccccc3)ccc2O[C@@H](C)CCCCO[C@H]1CN(C)C(=O)Nc1ccc(C(F)(F)F)cc1"
reported_property = "activity change, negative = inhibition"
readout_value = "inactive"

[[record]]
smiles_data = "C[C@@H]1CCCCO[C@H](CN(C)C(=O)Nc2ccc(C(F)(F)F)cc2)[C@@H](C)CN([C@@H](C)CO)C(=O)c2cc(NS(=O)(=O)c3cccs3)ccc2O1"
reported_property = "activity change, negative = inhibition"
readout_value = "inactive"


###

assay: Cryptococcus neoformans growth inhibition, dose response, Alamar Blue, cherry-picks (AID 686998)
stated-conditions: 24 h; series mostly up to 35 µM
Entries with a potency or affinity are not part of this list. Results filed as inconclusive are left out. Calls of active or inactive are those of the source.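 The calls were made as follows: active = falling signal with fitted half-maximal potency no higher than twice the top valid tested dose; inconclusive = poor fit quality, or flat fit spanning -70% to -30%; inactive = potency over limit, rising signal, or flat fit inside 30%.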
reported-property: outcome

[[record]]
compound = "O=C(NC[C@@H]1[C@H](c2ccccc2)[C@@H](CO)N1C(=O)Cc1cccnc1)C1CCC1"
reported_property = "outcome"
readout_value = "inactive"

[[record]]
compound = "Cc1cc(C)c(NC(=O)C2CCCN2C)c(C)c1 (stereo not given)"
reported_property = "outcome"
readout_value = "inactive"

[[record]]
compound = "COc1ccc(C#Cc2cnc3c(c2)C(=O)N([C@@H](C)CO)C[C@H](C)[C@@H](CN(C)C(=O)CC2CC2)O3)cc1"
reported_property = "outcome"
readout_value = "inactive"

[[record]]
compound = "COc1ccc(NC(=S)NCc2ccc(Cl)cc2)c(OC)c1"
reported_property = "outcome"
readout_value = "inactive"

[[record]]
compound = "C[C@H](CO)N1C[C@H](C)[C@@H](CN(C)Cc2ccc(-c3ccccc3)cc2)Oc2ccc(NC(=O)Nc3ccc(C(F)(F)F)cc3)cc2C1=O"
reported_property = "outcome"
readout_value = "inactive"


###

Listed below: composite z-score values for each entry.
target-or-test-system: E3 ubiquitin-protein ligase XIAP (Homo sapiens)
assay: XIAP binders, primary screen, biophysical, small-molecule microarray, fluorescence 635 nm (AID 1181);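 also: score merges 667 nm emission and signal to noise over triplicate slides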
stated-conditions: small-molecule microarray binding, higher = more signal
reported-property: composite z-score

[[record]]
molecule = "O=C1c2ccccc2[C@](Cc2ccccc2I)(C(=O)O)[C@H](c2ccc(CO)cc2)N1Cc1ccccc1Cl"
reported_property = "composite z-score"
readout_value = -0.148

[[record]]
molecule = "CN1C=C(C(=O)OCCS(C)(=O)=O)C(C(=O)OCCS(C)(=O)=O)=CC(CCCO)=CC1c1cccs1 (configuration not stated)"
reported_property = "composite z-score"
readout_value = 0.0374

[[record]]
molecule = "C=CCC(OC(C)=O)[C@@H]1[C@@H](N(Cc2cccc3ccccc23)C(=O)c2cccc3ccccc23)c2cc(OCCCO)ccc2N1C(=O)Cc1ccc(OC)cc1 (some centres not stated)"
reported_property = "composite z-score"
readout_value = 0.108

[[record]]
molecule = "C=CCC1(CC=C)C[C@H]2CO[C@H](c3ccc(OC)cc3)N2C1=O"
reported_property = "composite z-score"
readout_value = -0.323

[[record]]
molecule = "C=CCC(OC(C)=O)[C@@H]1[C@@H](N(Cc2ccc(-c3ccccc3)cc2)C(=O)c2ccc(-c3ccccc3)cc2)c2cc(OCCCO)ccc2N1C(=O)c1ccc(-c2ccccc2)cc1 (some centres not stated)"
reported_property = "composite z-score"
readout_value = -0.0102

[[record]]
molecule = "COc1ccc([Si](C)(C)[C@H]2[C@H](CC(=O)N3Cc4ccccc4C[C@H]3CO)O[C@@]3(C(=O)N(Cc4cccc(N5C(=O)COc6ccccc65)c4)c4ccccc43)[C@@H]2C)cc1"
reported_property = "composite z-score"
readout_value = -0.163

[[record]]
molecule = "CC(C)NC(=O)[C@@H]1c2ccccc2C(=O)N(Cc2cc(F)cc(C(F)(F)F)c2)[C@H]1c1ccc(CO)cc1"
reported_property = "composite z-score"
readout_value = -0.174

